Tested on: TK-10 renal
Test: NCI tumour cell line growth inhibition, 48 h
Parameter threshold = 30 µM. Response is rule met when TGI meets or exceeds it, else rule not met.

compound	system.name	label
O=[N+]([O-])c1ccccc1N/N=C\c1c[nH]c2ccccc12	TK-10 renal	rule met
C[C@H](Nc1ncnc2nc[nH]c12)c1cc2ccc(F)cc2nc1-c1ccccn1	TK-10 renal	rule met
COc1cc2nc(SCC(=O)Nc3cc(OC)c(OC)c(OC)c3)n(Cc3ccccc3)c(=O)c2cc1OC	TK-10 renal	rule not met
CNC(=O)OCc1c2ccncc2c(C)c2c1[nH]c1ccccc12	TK-10 renal	rule not met

Textbook exercise: given the entry COc1ccc2c(c1)[n+](=O)c(C(=O)c1ccco1)c(C(F)(F)F)n2[O-] , state whether its TGI is greater than or equal to 30 µM. rule met

Textbook exercise: given the entry Nc1ccn(C2CCC(CO)O2)c(=S)n1 (configuration not stated) , state whether its TGI is greater than or equal to 30 µM. rule met

Textbook exercise: given the entry C[n+]1c(-c2ccc(/C=N/NC(=O)C(=O)N/N=C/c3ccc(-c4cn5ccsc5[n+]4C)cc3)cc2)cn2ccsc21 , state whether its TGI is greater than or equal to 30 µM. rule met

Textbook exercise: given the entry CCN(CC)CCOc1ccccc1/C=C/c1noc2ccccc12 , state whether its TGI is greater than or equal to 30 µM. rule not met

Textbook exercise: given the entry O=c1oc2ccccc2c(O)c1/C=N/C(=S)NCCc1ccccc1 , state whether its TGI is greater than or equal to 30 µM. rule met

Textbook exercise: given the entry CC1CC[C@@]2(OC1)OC1CC3C4CCC5C[C@@H](OC6OC(CO)C(OC7OC(CO)C(O)C(OC8OC(CO)C(O)C(OC9OC(CO)C(O)C(O)C9O)C8O)C7OC7OC(CO)C(O)C(O)C7O)C(O)C6O)[C@H](O)C[C@]5(C)C4CC[C@]3(C)C1[C@@H]2C (some centres not stated) , state whether its TGI is greater than or equal to 30 µM. rule met

Textbook exercise: given the entry c1ccc([P+](Cc2ccccc2C[P+](c2ccccc2)(c2ccccc2)c2ccccc2)(c2ccccc2)c2ccccc2)cc1 , state whether its TGI is greater than or equal to 30 µM. rule met

Textbook exercise: given the entry OC1CCOc2ccccc21 (configuration not stated) , state whether its TGI is greater than or equal to 30 µM. rule met

Textbook exercise: given the entry CCCCCCCCCCCCCC(=O)OCC1OC(n2cc(F)c(=O)[nH]c2=O)C(NC(=O)OCc2ccccc2)C(OC(=O)CCCCCCCCCCCCC)C1O (configuration not stated) , state whether its TGI is greater than or equal to 30 µM. rule met

Textbook exercise: given the entry Cc1[nH]nc(N)c1C(N)=O , state whether its TGI is greater than or equal to 30 µM. rule met

Textbook exercise: given the entry COC(=O)[C@]12CC[C@@H](C)[C@H](C)[C@@H]1C1=CC[C@@H]3[C@@]4(C)C(C=O)=C[C@@](C)(COC(C)=O)C4=CC[C@@]3(C)[C@]1(C)CC2 , state whether its TGI is greater than or equal to 30 µM. rule not met

Textbook exercise: given the entry CCOC(=O)c1c(Cl)nc2ccccc2c1N=[N+]=[N-] , state whether its TGI is greater than or equal to 30 µM. rule met

====

System: HCT-15 colon
Experiment: NCI tumour cell line growth inhibition, 48 h
Property: TGI; scope: individual compounds

compound	TGI
O=C1CCC2CC(C(=O)c3ccccc3)CCC2CN1 (stereo not given) (tested in a mixture with another compound)	> 100 µM

Could you tell me which TGI is on file for CCOC(=O)c1c(C)n2c(=O)cc(C)c3c(O)c(O)cc1c32 ? 51.1 µM

Could you tell me which TGI is on file for O=C(N=Nc1cccc(Cl)c1)NNc1cccc(Cl)c1 ? 75.7 µM

Could you tell me which TGI is on file for COc1cc2cccc(N)c2cc1OC ? > 100 µM

====

Test system: U251 CNS
Assay: NCI tumour cell line growth inhibition, 48 h
Property: TGI; scope: individual compounds

compound	result.value
N#Cc1ccccc1NC(=O)C(=O)c1c(O)c2ccccc2oc1=O	> 100 µM
CC(=O)c1ccc(OCC(O)CO)cc1 (stereo not drawn)	> 100 µM

Kindly review the next compound as well.
Could you tell me which TGI is on file for c1ccc([P+](Cc2ccccc2C[P+](c2ccccc2)(c2ccccc2)c2ccccc2)(c2ccccc2)c2ccccc2)cc1 ? > 100 µM

====

Tested on: LXFL 529 NSCLC
Assay: NCI tumour cell line growth inhibition, 48 h
Property: TGI; scope: individual molecules

molecule	system.name	observable	result.value
CC1(C)C(O)C[C@@H](O)[C@@]2(C)C1CC[C@]1(C)C2C[C@@H](O)[C@@H]2C([C@@]3(C)CC[C@@H](C(C)(C)O)O3)CCC21C (stereo not given in full)	LXFL 529 NSCLC	TGI	22.4 µM

Could you tell me which TGI is on file for CC1SC2=NC3=C(c4ccccc4C3=O)C(c3ccc(Cl)cc3)N2C1=O (stereo not given) ? > 100 µM

Could you tell me which TGI is on file for CC1C[C@H](C)CC(C(O)CC2CC(=O)N(Cc3ccccc3)C(=O)C2)C1O (stereo not given in full) ? > 100 µM

Could you tell me which TGI is on file for OCC(O)C(O)C(O)c1nn(-c2ccc(Cl)cc2)c2nc3cc(Cl)c(Cl)cc3nc12 (stereo not given) ? > 100 µM

Could you tell me which TGI is on file for CCCCCCCCOCC(O)COC(=O)CCCCCCC (stereo not given) ? > 100 µM

====

Tested on: A549 NSCLC
Experiment: NCI tumour cell line growth inhibition, 48 h
Property: GI50; scope: individual compounds

compound	result.value
C[C@H](Nc1ncnc2nc[nH]c12)c1cc2ccc(F)cc2nc1-c1ccccn1	> 100 µM
COc1ccc(C(SCC(N)C(=O)O)(c2ccccc2)c2ccccc2)cc1 (stereo not drawn)	0.594 µM

Kindly review the next compound as well.
Could you tell me which GI50 is on file for CCCCCCCCN(CCCCCCCC)CCCCCCNc1cc(OC)cc2cccnc12 ? 16.3 µM

====

Test system: LOX IMVI melanoma
Assay: NCI tumour cell line growth inhibition, 48 h
Property: TGI; scope: individual molecules

// below: answered molecules
molecule	system.name	TGI
CC1CC(=O)Nc2ccccc2N1C(=O)CN1CCC(CCCCN(C)C)CC1 (stereo not given)	LOX IMVI melanoma	> 100 µM
COc1ccc(C2CC(c3cc(C)ccc3O)=NC(N)=N2)cc1 (stereo not given)	LOX IMVI melanoma	> 100 µM
Cc1nnc2sc(NN)nn12	LOX IMVI melanoma	> 100 µM
O=C1c2ccccc2S(=O)(=O)N1CSC(=S)N1CCCCC1	LOX IMVI melanoma	> 100 µM
O=c1oc2ccccc2c(O)c1/C=N/C(=S)NCCc1ccccc1	LOX IMVI melanoma	> 100 µM
c1cc2c(c(NC3=NCCO3)c1)CCC2	LOX IMVI melanoma	> 100 µM

Could you tell me which TGI is on file for COC(=O)/C=C1/CCC(C)(C(=O)NS(=O)(=O)c2ccc(C)cc2)C1(C)C (stereo not given) ? > 100 µM

====

Tested on: HOP-18 NSCLC
Test: NCI tumour cell line growth inhibition, 48 h
observable: TGI

Could you tell me which TGI is on file for N#Cc1c2c(c(N=P(c3ccccc3)(c3ccccc3)c3ccccc3)n3c1nc1ccccc13)CCCC2 ? > 100 µM

Could you tell me which TGI is on file for O=C(c1ccccc1)N1C2CCC1C(C(F)(F)F)=C2C(F)(F)F ? > 100 µM

Could you tell me which TGI is on file for NS(=O)(=O)c1ccc(NC2=CC(=O)C(=O)c3ccccc32)cc1 ? > 100 µM

====

Property: TGI; scope: individual compounds
System: UO-31 renal
Test: NCI tumour cell line growth inhibition, 48 h

// below: answered compounds
compound	system.name	TGI
CC(C)NC(=O)OCc1c(COC(=O)NC(C)C)c(-c2cc[n+](COC(=O)C(C)(C)C)cc2)n2c1CCC2	UO-31 renal	> 100 µM
CNC(=O)SCC(N)C(=O)O (stereo unspecified)	UO-31 renal	> 100 µM
O=C1c2ccccc2S(=O)(=O)N1CSC(=S)N1CCCCC1	UO-31 renal	> 100 µM
[O-][n+]1ccccc1S	UO-31 renal	> 100 µM
N#Cc1ccccc1NC(=O)C(=O)c1c(O)c2ccccc2oc1=O	UO-31 renal	> 100 µM
CC(=O)Oc1ccccc1/C=C/C(=O)/C=C/c1ccccc1OC(C)=O	UO-31 renal	3.48 µM
O=c1oc2ccccc2c(O)c1/C=N/C(=S)NCCc1ccccc1	UO-31 renal	> 74.6 µM
O=C(c1ccccc1)c1ccc(Oc2ccc([N+](=O)[O-])cc2[N+](=O)[O-])cc1	UO-31 renal	7.76 µM
O=[N+]([O-])c1ccccc1N/N=C\c1c[nH]c2ccccc12	UO-31 renal	> 65.9 µM
COc1ccc(C(=O)COC(=O)[C@H](C[Se][Se]C[C@H](NC(=O)c2ccc(Br)cc2F)C(=O)OCC(=O)c2ccc(OC)cc2)NC(=O)c2ccc(Br)cc2F)cc1	UO-31 renal	1.68 µM

Kindly review the next compound as well.
What reported TGI corresponds to C/C=C/C1=CC(=O)C(O)C1O (stereo unspecified) on UO-31 renal? 106 µM
